Data provenance: patent US20150093336A1

# test.target: T1, Recombinant human MMR (R&D systems) (human, UniProt P22897 19-1383)
# T1 construct: Antigen of the PE-ELISA and the SPR; also called hMMR; recombinant hMMR
# T1 sequence: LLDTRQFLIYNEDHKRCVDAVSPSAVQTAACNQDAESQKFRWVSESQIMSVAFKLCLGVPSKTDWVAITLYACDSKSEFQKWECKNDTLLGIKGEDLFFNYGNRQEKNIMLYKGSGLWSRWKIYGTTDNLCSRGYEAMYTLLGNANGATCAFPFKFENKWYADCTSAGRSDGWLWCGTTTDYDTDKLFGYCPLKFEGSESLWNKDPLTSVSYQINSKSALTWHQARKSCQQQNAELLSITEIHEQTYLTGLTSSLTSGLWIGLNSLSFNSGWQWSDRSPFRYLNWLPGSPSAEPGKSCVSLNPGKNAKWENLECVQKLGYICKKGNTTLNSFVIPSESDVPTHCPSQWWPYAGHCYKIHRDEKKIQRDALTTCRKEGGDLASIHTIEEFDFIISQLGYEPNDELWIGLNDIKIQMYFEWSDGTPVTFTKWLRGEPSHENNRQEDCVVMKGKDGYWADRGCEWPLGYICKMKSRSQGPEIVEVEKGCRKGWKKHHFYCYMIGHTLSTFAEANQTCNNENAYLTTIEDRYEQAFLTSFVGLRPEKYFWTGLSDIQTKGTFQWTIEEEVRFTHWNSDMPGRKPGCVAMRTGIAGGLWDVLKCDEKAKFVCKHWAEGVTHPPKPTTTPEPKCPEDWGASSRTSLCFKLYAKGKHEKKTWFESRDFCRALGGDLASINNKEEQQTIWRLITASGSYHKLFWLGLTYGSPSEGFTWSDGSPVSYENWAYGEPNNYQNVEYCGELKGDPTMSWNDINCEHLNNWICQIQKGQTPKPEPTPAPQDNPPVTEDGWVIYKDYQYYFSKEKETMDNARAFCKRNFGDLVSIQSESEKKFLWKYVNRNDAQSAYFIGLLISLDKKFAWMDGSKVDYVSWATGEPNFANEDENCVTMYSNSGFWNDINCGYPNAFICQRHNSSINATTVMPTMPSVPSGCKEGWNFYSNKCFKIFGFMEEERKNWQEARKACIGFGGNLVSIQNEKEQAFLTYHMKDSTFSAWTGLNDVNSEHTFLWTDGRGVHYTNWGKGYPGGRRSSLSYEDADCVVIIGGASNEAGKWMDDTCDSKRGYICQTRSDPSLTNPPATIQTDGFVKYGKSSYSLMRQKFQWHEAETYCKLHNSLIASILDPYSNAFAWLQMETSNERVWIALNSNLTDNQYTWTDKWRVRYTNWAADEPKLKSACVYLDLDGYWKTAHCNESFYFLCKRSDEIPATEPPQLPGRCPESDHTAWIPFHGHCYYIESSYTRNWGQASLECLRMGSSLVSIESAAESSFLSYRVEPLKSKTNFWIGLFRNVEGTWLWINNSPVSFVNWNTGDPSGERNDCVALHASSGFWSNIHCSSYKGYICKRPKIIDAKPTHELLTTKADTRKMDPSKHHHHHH
# protocol.summary: SPR, BIAcore T100; human MMR on CM5 chip, sdAb as analyte
result.type: koff (s⁻¹)

// solved cases for koff follow
binder: NbhMMRm3.1 (VHH, Produced from pMECS with C-terminal HA and 6xHis tag; also called NbhmMMRm3.1) VHH: QVQLQESGGGLVQPGGSLRLSCAASGFTLDYYAIGWFRQAPGKEREGISCISYKGGSTTYADSVKGRFTISKDNAKNTAYLQMNNLKPEDTGIYYCAAGFVCYNYDYWGPGTQVTVSS
koff [s⁻¹]: 0.00074

binder: NbhmMMRm14.93 (VHH, Produced from pMECS with C-terminal HA and 6xHis tag) VHH: QVQLQESGGGLVQAGDSLRLSCAASGRTFSINYMGWYRQAPGKQRELVAAITSGSGSTNYADSVKGRFTISRDNAKKTMYLQMNSLKPEDTAVYYCNADMDSSLSGGYVDVWGQGTQVTVSS
koff [s⁻¹]: 0.0012

binder: NbhmMMRm14.4 (VHH, Produced from pMECS with C-terminal HA and 6xHis tag) VHH: QVQLQESGGGLVQAGDSLRLSCAASGRTFSINYMGWYRQAPGKQRELVAAITSGSGSTNYADSVKGRFTISRDNAKNTMYLQMNSLKPEDTAVYYCNADMDSSLSGGYVDVWGQGTQVTVSS
koff [s⁻¹]: 0.0014

binder: NbhmMMRm21.22 (VHH, Produced from pMECS with C-terminal HA and 6xHis tag; also called NbhMMRm21.22) VHH: QVQLQESGGGLVQAGGSLRLSCAASGRTFSSAAMGWFRQAPGKEREPVALINLDDGETYYADIAKGRFTLSKDNAKNSVYLQMNSLKPEDTAVYYCAVRGRFDDNYEYWGQGTQVTVSS
koff [s⁻¹]: 0.0012

binder: NbhMMRm5.38 (VHH, Produced from pMECS with C-terminal HA and 6xHis tag; also called NbhmMMRm5.38; Nb5.38) VHH: QVQLQESGGGLVQAGGSLRLSCAASGFTDDDYDIGWFRQAPGKEREGVSCISSSDGSTYYADSVKGRFTISSDNAKNTVYLQMNSLKPEDTAVYYCAADFFRWDSGSYYVRGCRHATYDYWGQGTQVTVSS
koff [s⁻¹]: 0.00066

[1] NbhMMRm10.19 (VHH, Produced from pMECS with C-terminal HA and 6xHis tag) VHH: QVQLQESGGGLVQPGGSLKLSCAASGSIFSIKTMGWYRQAPGKQRELVAAITSGGSTNYADSVKGRFTISRDNAKNTVYLQMNSLKPEDTAVYYCNADGVVAWDQPYDNYWGQGTQVTVSS
[2] NbhMMRm16.95 (VHH, Produced from pMECS with C-terminal HA and 6xHis tag) VHH: QVQLQESGGGLVQPGGSLGLSCAASGRIASISAMGWYRQAPGKQRELVAAITGSGRTNYADSVKGRFTISRDNAKNTVYLQMNSLKPEDTAVYYCNLLMVDYGLGLGTDYWGQGTQVTVSS
// max by koff over [ 1 , 2 ] Refer to your chosen item by its label in the answer.
1
(1: 0.031 s⁻¹, 2: 0.0014 s⁻¹)

[A] NbhmMMRm15.49 (VHH, Produced from pMECS with C-terminal HA and 6xHis tag) VHH: QVQLQESGGGLVQAGGSLRLSCAASGSTFSINNMGWYRQAPGKQRELVAGITGGNTHYADSVKGRFTISRDNAKNTMYLQMNSLKPEDTAVYYCNANWGAYWGQGTQVTVSS
[B] NbhMMRm11.5 (VHH, Produced from pMECS with C-terminal HA and 6xHis tag) VHH: QVQLQESGGGLVQPGGSLMLSCAASGNIFTINRMGWYRQAPGKQRELVAAITSGGNTNYADSVKGRFTISRDNAKNTVYLQMNSLKPEDTAVYYCNAAIVTMTSPYSDYWGQGTQVTVSS
Look at A and B . Which one has the lower recorded koff number? Select an item and report its label.
A
(A: 0.0061 s⁻¹, B: 0.022 s⁻¹)
